- Test system: PPARg:RXRa 270nM:90nM, anti-RXR (NR concentration 270 nM, RXRa partner concentration 90 nM)
- Method Description: PBM binding z-score (relative to random genomic background probes); higher = stronger binding; sequences stand for … in GC…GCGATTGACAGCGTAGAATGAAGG
Assign T to entries whose PBM binding z-score meets or exceeds 4; assign F to the rest.

# Biopolymer Sequence, Group
data = [
    ("ATCTCTAGGTAACCAAGTTTAGTGAATGCCGAAC", "F"),
    ("CGTCCAAGGTCAGAGAGGTCAGTGCATGCCGAGT", "T"),
    ("GCTAGTTGGTCAGGAAAAGGTCACACACCGGTCG", "F"),
    ("ACTAGTTGGTCAGCTGAGGTTACACACAATTCGG", "F"),
    ("AGTCAAAGTTCACTACGTAACGTAAGATTCAGCT", "T"),
    ("GTACCAAGGTGAATAGCTCGTTGATGAGTAGGCG", "F"),
    ("CCTACTGGGCCAACGGTCATTGATTCCAATGCTC", "T"),
    ("ATCTCTAGGTAAGACGCAGTTCAGTGAAGAACGC", "F"),
    ("GCTTGTAGATCACGGTTAAGAAAGACTAAGCTAA", "F"),
    ("CCTTACGGGTCACGAGGGTATAGCACGACGAGCG", "T"),
    ("CGAACTAGGTCAAGAGGTCAAAGTCCGCTTCCCG", "T"),
]
